- PROCEDURE SUMMARY: Pharmacokinetic Study on Silodosin (Study 98364)
- Assay type: in vivo
- RECORDED CONDITIONS: human, plasma, 4 mg, 4 mg once daily 7 days, Day 7, 6 h, individual subjects; read-out: Blood Plasma Concentrations
OBSERVED PROPERTY: concentration at 6 h (ng/mL)
Numeric only. Scale: ng/mL

Inquiry: Field request: concentration at 6 h | item: C[C@H](Cc1cc2c(c(C(N)=O)c1)N(CCCO)CC2)NCCOc1ccccc1OCC(F)(F)F
Reply text: 8.9

====

- PROCEDURE SUMMARY: Pharmacokinetic Study on Silodosin (Study 98364)
- Assay type: in vivo
- RECORDED CONDITIONS: male, human, plasma, 4 mg, 4 mg once daily 7 days, Day 7, 5 h, mean; read-out: Blood Plasma Concentrations
- Text: The remaining two subjects in each dosing cohort received placebo.
OBSERVED PROPERTY: concentration at 5 h
Reply with a number, then the unit it belongs to.

Inquiry: Field request: concentration at 5 h | item: C[C@H](Cc1cc2c(c(C(N)=O)c1)N(CCCO)CC2)NCCOc1ccccc1OCC(F)(F)F
Reply text: 10.3 ng/mL

====

- PROCEDURE SUMMARY: Pharmacokinetic Study on Silodosin (Study 98364)
- Type: in vivo
- RECORDED CONDITIONS: male, human, plasma, 4 mg, 4 mg twice daily 7 days (simulated from Table 1a), Day 7, 2 h; read-out: Estimated Blood Plasma Concentrations
OBSERVED PROPERTY: concentration at 2 h (ng/mL)
Numeric only. Scale: ng/mL

Inquiry: Field request: concentration at 2 h | item: C[C@H](Cc1cc2c(c(C(N)=O)c1)N(CCCO)CC2)NCCOc1ccccc1OCC(F)(F)F
Reply text: 31.5

====

- PROCEDURE SUMMARY: Pharmacokinetic Study on Silodosin (Study 98364)
- Type: in vivo
- RECORDED CONDITIONS: male, human, plasma, 4 mg, 4 mg twice daily 7 days (simulated from Table 1a), Day 7, 17 h; read-out: Estimated Blood Plasma Concentrations
- Source text: The remaining two subjects in each dosing cohort received placebo.
OBSERVED PROPERTY: concentration at 17 h (ng/mL)
Numeric only. Scale: ng/mL

Inquiry: Field request: concentration at 17 h | item: C[C@H](Cc1cc2c(c(C(N)=O)c1)N(CCCO)CC2)NCCOc1ccccc1OCC(F)(F)F [Silodosin]
Reply text: 10.3

====

- PROCEDURE SUMMARY: Pharmacokinetic Study on Silodosin (Study 98364)
- Assay type: in vivo
- RECORDED CONDITIONS: male, human, plasma, 4 mg, 4 mg once daily 7 days, Day 7, […], mean; read-out: Blood Plasma Concentrations
OBSERVED PROPERTY: concentration at […] (ng/mL)
Numeric only. Scale: ng/mL

Inquiry: Field request: concentration at […] | item: C[C@H](Cc1cc2c(c(C(N)=O)c1)N(CCCO)CC2)NCCOc1ccccc1OCC(F)(F)F [Silodosin]
Reply text: 4.67

====

- PROCEDURE SUMMARY: Pharmacokinetic Study on Silodosin (Study 98364)
- Type: in vivo
- RECORDED CONDITIONS: male, human, plasma, 4 mg, 4 mg twice daily 7 days (simulated from Table 1a), Day 7, 20 h; read-out: Estimated Blood Plasma Concentrations
OBSERVED PROPERTY: concentration at 20 h (ng/mL)
Numeric only. Scale: ng/mL

Inquiry: Field request: concentration at 20 h | item: C[C@H](Cc1cc2c(c(C(N)=O)c1)N(CCCO)CC2)NCCOc1ccccc1OCC(F)(F)F
Reply text: 4.67

====

- PROCEDURE SUMMARY: Pharmacokinetic Study on Silodosin (Study 98364)
- Type: in vivo
- RECORDED CONDITIONS: male, human, plasma, 4 mg, 4 mg once daily 7 days, Day 7, 2 h, mean; read-out: Blood Plasma Concentrations
OBSERVED PROPERTY: concentration at 2 h (ng/mL)
Numeric only. Scale: ng/mL

Inquiry: Field request: concentration at 2 h | item: C[C@H](Cc1cc2c(c(C(N)=O)c1)N(CCCO)CC2)NCCOc1ccccc1OCC(F)(F)F
Reply text: 31.5

====

- PROCEDURE SUMMARY: clinical
- RECORDED CONDITIONS: male, human, plasma, 4 mg
OBSERVED PROPERTY: concentration at 13 h (ng/mL)
Numeric only. Scale: ng/mL

Inquiry: Field request: concentration at 13 h | item: C[C@H](Cc1cc2c(c(C(N)=O)c1)N(CCCO)CC2)NCCOc1ccccc1OCC(F)(F)F
Reply text: 9.77

====

- PROCEDURE SUMMARY: Pharmacokinetic Study on Silodosin (Study 98364)
- Type: in vivo
- RECORDED CONDITIONS: male, human, plasma, 4 mg, 4 mg once daily 7 days, Day 7, 12 h, mean; read-out: Blood Plasma Concentrations
OBSERVED PROPERTY: concentration at 12 h (ng/mL)
Numeric only. Scale: ng/mL

Inquiry: Field request: concentration at 12 h | item: C[C@H](Cc1cc2c(c(C(N)=O)c1)N(CCCO)CC2)NCCOc1ccccc1OCC(F)(F)F [Silodosin]
Reply text: 3.31

====

- PROCEDURE SUMMARY: clinical
- RECORDED CONDITIONS: male, human, plasma, 4 mg
OBSERVED PROPERTY: concentration at 14 h (ng/mL)
Numeric only. Scale: ng/mL

Inquiry: Field request: concentration at 14 h | item: C[C@H](Cc1cc2c(c(C(N)=O)c1)N(CCCO)CC2)NCCOc1ccccc1OCC(F)(F)F
Reply text: 31.5

Attribution: patent US20110319464A1
